The reported measurements were obtained from paper PMC3430861.

# IC50 per record follows
- measured-target: ELIC (Dickeya chrysanthemi)
- test-protocol: cell-based
- Type: cell-based, Erwinia chrysanthemi
- protocol-conditions: pIC50 (Mean ± SEM)
assay-endpoint: IC50 (µM)

molecule	uom	measured-result
O=S1OC[C@@H]2[C@H](CO1)[C@@]1(Cl)C(Cl)=C(Cl)[C@]2(Cl)C1(Cl)Cl (stereo partly drawn) [α-endosulfan]	µM	17
CN(C)CCCN1c2ccccc2Sc2ccc(Cl)cc21	µM	229
CC(N)C12CC3CC(CC(C3)C1)C2 (stereo not shown)	µM	53.7
NC12CC3CC(CC(C3)C1)C2	µM	372
ClC1=C(Cl)[C@]2(Cl)[C@@H]3[C@@H]4C[C@@H]([C@H]5O[C@@H]45)[C@@H]3[C@@]1(Cl)C2(Cl)Cl	µM	66.1
CC(=O)[C@H]1CC[C@H]2[C@@H]3CCC4=CC(=O)CC[C@]4(C)[C@H]3CC[C@]12C	µM	151
N#Cc1nn(-c2c(Cl)cc(C(F)(F)F)cc2Cl)c(N)c1[S+]([O-])C(F)(F)F (stereo not shown)	µM	347

---

compounds and their reported pIC50
- measured-target: UniProt:P0C7B7
- Sequence (P0C7B7 8-321): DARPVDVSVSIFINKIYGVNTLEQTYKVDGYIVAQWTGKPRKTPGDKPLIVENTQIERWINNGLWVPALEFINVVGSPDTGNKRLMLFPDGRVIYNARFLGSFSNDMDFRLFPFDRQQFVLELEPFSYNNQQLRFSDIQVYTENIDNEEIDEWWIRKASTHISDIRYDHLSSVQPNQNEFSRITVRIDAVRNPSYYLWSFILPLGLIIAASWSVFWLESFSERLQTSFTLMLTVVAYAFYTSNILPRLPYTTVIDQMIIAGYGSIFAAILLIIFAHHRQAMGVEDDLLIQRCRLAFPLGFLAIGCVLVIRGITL
- test-protocol: cell-based
- Type: cell-based, Erwinia chrysanthemi
- protocol-conditions: IC50, wild type ELIC; at the GABA EC50 (1.6 mM)
pIC50: −log10 of the molar value.
assay-endpoint: pIC50

compound	measured-target	assay-endpoint	measured-result
CC(C)(C)[C@]1(O)CC2OC(=O)CC23C(=O)OC2OC(=O)[C@H](O)C231 (some centres unmarked) [Bilobalide]	UniProt:P0C7B7	pIC50	3.48
C=C(C)[C@@H]1[C@H]2OC(=O)[C@@H]1[C@]1(O)C[C@H]3O[C@]34C(=O)O[C@H]2[C@]14C	UniProt:P0C7B7	pIC50	4.02

---

- measured-target: ELIC (Dickeya chrysanthemi, UniProt P0C7B7, INS163G)
- Construct: expressed in transfected cells; host or cells: Xenopus laevis oocytes injected with cRNA
- test-protocol: cell-based
- Assay type: cell-based, Erwinia chrysanthemi
- protocol-conditions: 10 mM

molecule	effect on ELIC (agonist test)
O=C([O-])CCC(=O)[O-].[Na+].[Na+] [sodium succinate]	did not activate ELIC
NCCc1c[nH]c2ccc(O)cc12	no ELIC responses
O=C1CCCO1	did not activate ELIC
O=C(O)[C@@H]1CCC(O)=N1 [pyroglutamate]	did not activate ELIC
NCC(=O)O	no ELIC responses
CCC(N)C(=O)O (stereo not drawn) [α-aminobutyrate]	did not activate ELIC
